# System: mouse RANKL mRNA
# assayText: Antisense inhibition of mouse RANKL mRNA levels in C2C12 cells, quantitative real-time PCR (Table 2)
# Type: cell-based
# Design: concentration or dose not given beside the values
# measurementParameters: averages from three experiments
Strand notation (5' to 3'): a small letter for the sugar, then the base; units joined by * are phosphorothioate-linked, units joined directly phosphodiester-linked; [ ] holds rarer units or linkages, { } end groups; capitals alone tell only the bases. e = 2'-O-(2-methoxyethyl) (MOE); [5mC] = 5-methylcytosine; d = 2'-deoxy (DNA)
A collection of substances and their measured % INHIB (inhibition of mouse RANKL mRNA levels)
endpoint: % INHIB (inhibition of mouse RANKL mRNA levels) (%)

{"substance": "180805 (antisense eG*eG*e[5mC]*eT*eT*dG*d[5mC]*d[5mC]*dT*d[5mC]*dG*d[5mC]*dT*dG*dG*eG*e[5mC]*e[5mC]*eA*e[5mC]) [compound 180805]", "unitText": "%", "numericReadout": 62}
{"substance": "180791 (antisense e[5mC]*e[5mC]*eG*e[5mC]*e[5mC]*dG*dA*dG*d[5mC]*dA*dG*dA*d[5mC]*dT*d[5mC]*e[5mC]*eG*e[5mC]*e[5mC]*eA) [compound 180791]", "unitText": "%", "numericReadout": 44}

---

# Tested on: rat RANKL mRNA
# assayText: Antisense inhibition of rat RANKL mRNA levels in UMR-106 cells, quantitative real-time PCR (Table 3)
# Format: cell-based
# Parameters: concentration or dose not given beside the values
# measurementParameters: averages from three experiments
Strand notation (5' to 3'): a small letter for the sugar, then the base; units joined by * are phosphorothioate-linked, units joined directly phosphodiester-linked; [ ] holds rarer units or linkages, { } end groups; capitals alone tell only the bases. e = 2'-O-(2-methoxyethyl) (MOE); [5mC] = 5-methylcytosine; d = 2'-deoxy (DNA)
% INHIB (inhibition of rat RANKL mRNA levels) below 50% gives not met; % INHIB (inhibition of rat RANKL mRNA levels) at or above it gives met.

{"substance": "286656 (eT*eT*eT*eT*eG*d[5mC]*dA*d[5mC]*dA*dG*dA*dA*dA*dA*d[5mC]*e[5mC]*eT*eT*eA*e[5mC]; antisense) [compound 286656]", "assignedCategory": "not met"}
{"substance": "286643 (antisense eG*e[5mC]*eA*eT*eA*dT*d[5mC]*d[5mC]*dA*dT*dG*d[5mC]*dT*dA*dA*eG*eG*e[5mC]*eT*e[5mC]) [compound 286643]", "assignedCategory": "met"}
{"substance": "286617 (antisense eA*eG*eT*eT*eT*dT*d[5mC]*d[5mC]*dG*dT*dT*dG*d[5mC]*dT*dT*eA*eA*e[5mC]*eG*eT) [compound 286617]", "assignedCategory": "met"}
{"substance": "286610 (antisense eA*e[5mC]*eT*eT*eT*dA*dT*dG*dG*dG*dA*dA*d[5mC]*d[5mC]*d[5mC]*eG*eA*eT*eG*eG) [compound 286610]", "assignedCategory": "not met"}
{"substance": "286605 (antisense eT*eT*eT*eG*e[5mC]*dA*d[5mC]*dG*dG*d[5mC]*d[5mC]*d[5mC]*d[5mC]*dT*dT*eG*eA*eA*eA*eG) [compound 286605]", "assignedCategory": "met"}
{"substance": "286622 (antisense eA*eA*eT*eA*eG*dA*dA*dG*d[5mC]*d[5mC]*dA*dT*d[5mC]*dT*dT*eG*eG*eT*eT*eA) [compound 286622]", "assignedCategory": "not met"}
{"substance": "286642 (antisense eT*e[5mC]*eA*eG*eT*d[5mC]*dT*dA*dT*dG*dT*d[5mC]*dT*dT*dG*eA*eA*e[5mC]*eT*eT) [compound 286642]", "assignedCategory": "not met"}
{"substance": "286614 (antisense eA*eT*e[5mC]*eT*eT*dG*dG*d[5mC]*d[5mC]*d[5mC]*dA*dG*d[5mC]*d[5mC]*dT*e[5mC]*eG*eA*eT*e[5mC]) [compound 286614]", "assignedCategory": "not met"}
{"substance": "286586 (antisense eG*eG*eT*eA*e[5mC]*dT*dT*dG*d[5mC]*d[5mC]*dG*dT*dA*dG*dT*e[5mC]*eT*e[5mC]*eG*eG) [compound 286586]", "assignedCategory": "met"}
{"substance": "180806 (antisense eG*eG*e[5mC]*eA*eG*d[5mC]*dA*dT*dT*dG*dA*dT*dG*dG*dT*eG*eA*eG*eG*eT) [compound 180806]", "assignedCategory": "not met"}
{"substance": "286651 (eA*eG*eG*eT*eT*d[5mC]*dT*d[5mC]*dA*dG*dT*dG*dG*d[5mC]*dA*e[5mC]*eA*eG*eG*e[5mC]; antisense) [compound 286651]", "assignedCategory": "met"}

---

# Tested on: rat RANKL mRNA
# assayText: Antisense inhibition of rat RANKL mRNA levels in UMR-106 cells, quantitative real-time PCR (Table 3)
# Format: cell-based
# Design: concentration or dose not given beside the values
# measurementParameters: averages from three experiments
# Description: Cells were seeded onto 24-well plates (Falcon-353047) at a density of […] for use in antisense oligonucleotide transfection. Cells are treated and data are obtained in triplicate. […] Cells were harvested 16-24 hours after oligonucleotide treatment. PCR reagents were obtained from Invitrogen Corporation, (Carlsbad, Calif.). […]
Strand notation (5' to 3'): a small letter for the sugar, then the base; units joined by * are phosphorothioate-linked, units joined directly phosphodiester-linked; [ ] holds rarer units or linkages, { } end groups; capitals alone tell only the bases. e = 2'-O-(2-methoxyethyl) (MOE); [5mC] = 5-methylcytosine; d = 2'-deoxy (DNA)
endpoint: % INHIB (inhibition of rat RANKL mRNA levels) (%)

{"substance": "286602 (antisense eA*eA*e[5mC]*e[5mC]*eT*dG*dT*dA*dT*dT*dT*dT*d[5mC]*dA*d[5mC]*eG*eG*eA*eG*eT) [compound 286602]", "experimentalTarget": "rat RANKL mRNA", "unitText": "%", "numericReadout": 48}
{"substance": "286635 (antisense eT*eA*eA*eA*eA*dG*dT*dG*dG*dA*dA*dT*dT*d[5mC]*dA*eG*eA*eA*eT*eT) [compound 286635]", "experimentalTarget": "rat RANKL mRNA", "unitText": "%", "numericReadout": 11}
{"substance": "286638 (antisense eA*eG*eT*eA*e[5mC]*dG*dT*d[5mC]*dG*d[5mC]*dA*dT*d[5mC]*dT*dT*eG*eA*eT*e[5mC]*e[5mC]) [compound 286638]", "experimentalTarget": "rat RANKL mRNA", "unitText": "%", "numericReadout": 26}
{"substance": "286657 (e[5mC]*e[5mC]*eA*eG*eT*dT*dA*dA*dA*dT*dA*d[5mC]*dA*dT*d[5mC]*eT*eT*eG*eA*e[5mC]; antisense) [compound 286657]", "experimentalTarget": "rat RANKL mRNA", "unitText": "%", "numericReadout": 10}
{"substance": "286633 (antisense e[5mC]*e[5mC]*eA*eG*eT*dT*d[5mC]*dT*dT*dA*dG*dT*dG*d[5mC]*dT*e[5mC]*e[5mC]*e[5mC]*e[5mC]*e[5mC]) [compound 286633]", "experimentalTarget": "rat RANKL mRNA", "unitText": "%", "numericReadout": 4}

---

# Tested on: rat RANKL mRNA
# assayText: Antisense inhibition of rat RANKL mRNA levels in UMR-106 cells, quantitative real-time PCR (Table 3)
# Format: cell-based
# Set-up: concentration or dose not given beside the values
# measurementParameters: averages from three experiments
Strand notation (5' to 3'): a small letter for the sugar, then the base; units joined by * are phosphorothioate-linked, units joined directly phosphodiester-linked; [ ] holds rarer units or linkages, { } end groups; capitals alone tell only the bases. e = 2'-O-(2-methoxyethyl) (MOE); [5mC] = 5-methylcytosine; d = 2'-deoxy (DNA)
endpoint: % INHIB (inhibition of rat RANKL mRNA levels)

{"substance": "tccagagtcgagtcctgcaa (eT*e[5mC]*e[5mC]*eA*eG*dA*dG*dT*d[5mC]*dG*dA*dG*dT*d[5mC]*d[5mC]*eT*eG*e[5mC]*eA*eA; antisense) [ISIS 286604, 2′-MOE gapmer targeted to rat RANKL]", "result": "at least 40%"}
{"substance": "taggatccatctgcgctcga (eT*eA*eG*eG*eA*dT*d[5mC]*d[5mC]*dA*dT*d[5mC]*dT*dG*d[5mC]*dG*e[5mC]*eT*e[5mC]*eG*eA; antisense) [ISIS 286595, 2′-MOE gapmer targeted to rat RANKL]", "result": "at least 40%"}
{"substance": "accatcagctgaagatagtc (eA*e[5mC]*e[5mC]*eA*eT*d[5mC]*dA*dG*d[5mC]*dT*dG*dA*dA*dG*dA*eT*eA*eG*eT*e[5mC]; antisense) [ISIS 286629, 2′-MOE gapmer targeted to rat RANKL]", "result": "at least 40%"}
